Experiment: chemical recovery from spiked human plasma; higher = better extraction;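 also: plasma spiked with over 400 chemicals, quantified by LC-HRMS and GC-HRMS via internal standard calibration against matrix-matched unspiked plasma extracts plus spike mix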
Settings: pooled human plasma; extraction method: PES+SPE (3 d PDMS equilibration then HLB SPE)
quantity-name: chemical recovery (%)
# unit: % | format: bare number

The examples below pair each entry with its known result.
CC(C)C1CCC(Cc2ccc(Cl)cc2)C1(O)Cn1cncn1 (stereo not given) | 56.7
Cc1ccc2ccc3ccc(C)cc3c2c1 | 36.5
Oc1ccc(Cl)cc1O [3,4-Dihydroxy-chlorobenzene] | 5.54

Query string: Any idea what chemical recovery was measured for CNCCCN1c2ccccc2CCc2ccccc21 ?
Result string: 1.49

Query string: Follow-up entry: CCc1c(Br)c(Br)c(Br)c(Br)c1Br
Result string: 53.3

Query string: Follow-up entry: COC[P+](c1ccccc1)(c1ccccc1)c1ccccc1
Result string: 40.1

Query string: Follow-up entry: C=C(C)C(N)=O [Methacrylamide]
Result string: 0.198

Query string: Follow-up entry: N#C/N=C1\SCCN1Cc1ccc(Cl)nc1
Result string: 55.5

Query string: Follow-up entry: CC(=O)Nc1ccccc1 [Acetanilide]
Result string: 40.3

Query string: Follow-up entry: C=Cc1c2ccccc2cc2ccccc12
Result string: 42.1
